Consider the following molecules; for each one, report its IC50.

query: Output reported IC50 of the molecule CC1CCCN(Cc2ccc3cc(-c4csc(-c5ccncc5)n4)c(=O)[nH]c3c2)C1 (stereo unspecified) on CDK2 (human).
result: < 1000 nM

query: Output reported IC50 of the molecule O=c1[nH]c2ccccc2cc1-c1csc(-c2ccnc(OCCN3CCCCC3)c2)n1 on CDK2 (human).
result: < 1000 nM

query: Output reported IC50 of the molecule CCN(CC)CCOc1cc(-c2nc(-c3cc4ccccc4[nH]c3=O)cs2)ccn1 on CDK2 (human).
result: < 1000 nM

query: Output reported IC50 of the molecule O=c1[nH]c2cc(C(F)(F)F)ccc2cc1-c1csc(CS(=O)(=O)c2ccccc2)n1 on CDK2 (human).
result: < 1000 nM

query: Output reported IC50 of the molecule CC(C)C(CO)NCc1ccc2cc(-c3csc(-c4ccncc4)n3)c(=O)[nH]c2c1 (stereo unspecified) on CDK2 (human).
result: < 1000 nM

query: Output reported IC50 of the molecule CN1CCN(Cc2ccc3cc(-c4csc(CS(=O)(=O)c5ccccc5)n4)c(=O)[nH]c3c2)CC1 on CDK2 (human).
result: < 1000 nM

query: Output reported IC50 of the molecule O=c1[nH]c2cc(C(F)(F)F)ccc2cc1-c1csc(-c2ccncc2)n1 on CDK2 (human).
result: < 1000 nM

query: Output reported IC50 of the molecule O=c1[nH]c2ccccc2cc1-c1csc(-c2ccncc2)n1 on CDK2 (human).
result: < 1000 nM

query: Output reported IC50 of the molecule O=c1[nH]c2cc(C(F)(F)F)ccc2cc1-c1csc(-c2ccc3c(c2)OCO3)n1 on CDK2 (human).
result: < 1000 nM

query: Output reported IC50 of the molecule COC(=O)c1ccc2cc(-c3csc(N(C)S(=O)(=O)c4ccccc4)n3)c(=O)[nH]c2c1 on CDK2 (human).
result: < 1000 nM

query: Output reported IC50 of the molecule CCN(CC)CCN(C)Cc1ccc2cc(-c3csc(-c4ccncc4)n3)c(=O)[nH]c2c1 on CDK2 (human).
result: < 1000 nM

Where do the numbers come from? From the Kinase Knowledgebase extract (Sharma et al. 2016).
